# study target: T1, 4H568-bH
# T1 chain: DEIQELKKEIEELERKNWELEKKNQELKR
# protocol description: two-hybrid library CCNG1;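 further: natural log of median RNA to DNA barcode read ratio; higher means stronger binding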
readout type: interaction score

# example entries with known answers
DKNQELKKEIEELERENWELEKKIQELKR [4H3606-bH]: 1.11
DKIQELEKKNEELEREIWELKKEIQELKR [4H2442-bH]: -0.0562

Input line: Which interaction score reading was recorded for the binder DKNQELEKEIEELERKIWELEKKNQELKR [4H3112-bH] ?
Output line: -0.443

Input line: Next binder up: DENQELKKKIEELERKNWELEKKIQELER [4H1845-bH]
Output line: -0.447

Input line: Next binder up: DEIQELEKKNEELKREIWELEKKIQELKR [4H454-bH]
Output line: 0.197
